Assignment: determine reported EC50 for the given compounds.
target: UniProtKB Q03181; assay: cell-based human PPAR-GAL4 chimera luciferase reporter assay in CV-1 cells (PPARδ); conditions: CV-1 cells transiently transfected with PPAR LBD-GAL4 chimera and luciferase reporter, 24 hours treatment
Sequence (Q03181 211-439 limits assumed): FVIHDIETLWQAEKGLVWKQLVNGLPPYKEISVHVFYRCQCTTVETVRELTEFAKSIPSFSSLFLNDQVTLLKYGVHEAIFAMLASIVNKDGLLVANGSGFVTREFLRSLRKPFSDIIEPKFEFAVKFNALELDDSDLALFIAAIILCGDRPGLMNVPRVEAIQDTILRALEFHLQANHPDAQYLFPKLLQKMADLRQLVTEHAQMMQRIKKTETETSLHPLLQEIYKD

-- ask I have this compound here, CCCCN(CCCOc1c(C(=O)O)ccc2ccccc12)c1ncc(CC)cn1 , and I need its recorded EC50.
-- reply > 100 µM

-- ask I have this compound here, O=C(O)Cc1cccc(OCCCN(Cc2ccc(C(F)(F)F)cc2C(F)(F)F)c2ccccn2)c1 , and I need its recorded EC50.
-- reply < 1 µM

-- ask I have this compound here, CCc1cnc(N(CCCOc2cccc(CC(=O)O)c2)Cc2ccc(C(F)(F)F)cc2C(F)(F)F)nc1 , and I need its recorded EC50.
-- reply < 1 µM

-- ask I have this compound here, CCc1cnc(N(CCCOc2cc3ccccc3cc2C(=O)O)Cc2ccc(C(F)(F)F)cc2C(F)(F)F)nc1 , and I need its recorded EC50.
-- reply > 100 µM

-- ask I have this compound here, O=C(O)c1ccc2ccccc2c1OCCCN(Cc1ccc(C(F)(F)F)cc1C(F)(F)F)c1nc2ccccc2o1 , and I need its recorded EC50.
-- reply > 100 µM

-- ask I have this compound here, CCCCN(CCCOc1c(C(=O)O)ccc2ccccc12)c1nc2ccccc2s1 , and I need its recorded EC50.
-- reply 1 to 100 µM

-- ask I have this compound here, CCCCN(CCCOc1cccc(CC(=O)O)c1)c1ccccn1 , and I need its recorded EC50.
-- reply 1 to 100 µM

-- ask I have this compound here, CCc1cnc(N(CCCOc2ccc3cc(C(=O)O)ccc3c2)Cc2ccc(C(F)(F)F)cc2C(F)(F)F)nc1 , and I need its recorded EC50.
-- reply > 100 µM

-- ask I have this compound here, O=C(O)Cc1cccc(OCCCN(Cc2ccc(C(F)(F)F)cc2C(F)(F)F)c2nc3ccccc3o2)c1 , and I need its recorded EC50.
-- reply 1 to 100 µM

-- ask I have this compound here, O=C(O)Cc1cccc(OCCCN(Cc2ccc(C(F)(F)F)cc2)c2nc3ccccc3s2)c1 , and I need its recorded EC50.
-- reply < 1 µM

-- ask I have this compound here, CCCCN(CCCOc1c(C(=O)O)ccc2ccccc12)c1nc2ccccc2o1 , and I need its recorded EC50.
-- reply > 100 µM

-- ask I have this compound here, CCc1cnc(N(CCCOc2c(C(=O)O)ccc3ccccc23)Cc2ccc(C(F)(F)F)cc2C(F)(F)F)nc1 , and I need its recorded EC50.
-- reply > 100 µM

-- ask I have this compound here, CCCCN(CCCOc1cccc(CC(=O)O)c1)c1nc2ccccc2o1 , and I need its recorded EC50.
-- reply 1 to 100 µM

-- ask I have this compound here, CCCCN(CCCOc1cccc(CC(=O)O)c1)c1nc2ccccc2s1 , and I need its recorded EC50.
-- reply 1 to 100 µM

-- ask I have this compound here, O=C(O)c1ccc2ccccc2c1OCCCN(Cc1ccc(C(F)(F)F)cc1)c1nc2ccccc2s1 , and I need its recorded EC50.
-- reply > 100 µM

-- ask I have this compound here, O=C(O)Cc1cccc(OCCCN(Cc2ccc(C(F)(F)F)cc2C(F)(F)F)c2nc3ccccc3s2)c1 , and I need its recorded EC50.
-- reply 1 to 100 µM

-- ask I have this compound here, CCCCN(CCCOc1cccc(CC(=O)O)c1)c1ncc(CC)cn1 , and I need its recorded EC50.
-- reply 1 to 100 µM

-- ask I have this compound here, CCCCN(CCCOc1c(C(=O)O)ccc2ccccc12)c1ccccn1 , and I need its recorded EC50.
-- reply > 100 µM
